Test: ATG_ISRE_CIS: Attagene CIS-FACTORIAL HepG2 Assay for human Interferon Regulatory Factor 1 (IRF1) binding to an Interferon-Stimulated Response Element (ISRE) (AID 2282948)
Conditions: HepG2 ISRE cis-reporter (Attagene), mRNA transcription readout; actives raise or lower the signal
The source made the active and inactive calls. Rule for the calls: active = hit-call score of the fitted dose curve at least 0.9, where 1 is the maximum; inactive = score below 0.9.
// allowed return values: active, inactive

Recorded results for 8 compounds are shown here.
Query: Which result was noted for this compound in the test: `CC1(C)NC(=O)N(c2ccc([N+](=O)[O-])c(C(F)(F)F)c2)C1=O`
Reply: inactive

Query: Which result was noted for this compound in the test: `CCCC(=O)OCCC(C)C`
Reply: inactive

Query: Which result was noted for this compound in the test: `c1ccc2n[nH]nc2c1`
Reply: inactive

Query: Which result was noted for this compound in the test: `O=c1[nH]sc2ccccc12`
Reply: active

Query: Which result was noted for this compound in the test: CN1C(=O)N(c2ccccc2Br)Cc2cnc(Nc3ccc4c(c3)OCC(CO)O4)nc21 (configuration not stated)
Reply: inactive

Query: Which result was noted for this compound in the test: `O=c1c(-c2ccc(O)cc2)coc2cc(O)cc(O)c12`
Reply: inactive

Query: Which result was noted for this compound in the test: `O=C1c2ccccc2C(=O)N1CCc1noc(-c2ccc(CN3CCCCCC3)s2)n1`
Reply: inactive

Query: Which result was noted for this compound in the test: `c1ccc2ccccc2c1`
Reply: inactive

Others:
Query: Which result was noted for this compound in the test: `COc1cc(C(=O)NC2CCN(C)CC2)ccc1Nc1ncc2c(n1)N(C1CCCC1)CC(F)(F)C(=O)N2C`
Reply: active

Query: Which result was noted for this compound in the test: `CC[C@@H]1C[C@H](N(Cc2cc(C(F)(F)F)cc(C(F)(F)F)c2)C(C)=O)c2cc(C(F)(F)F)ccc2N1C(=O)OC(C)C`
Reply: inactive

Query: Which result was noted for this compound in the test: `CCCCCCCCCCCO`
Reply: inactive

Query: Which result was noted for this compound in the test: `O=C=NCCCCCCN=C=O`
Reply: inactive

Query: Which result was noted for this compound in the test: `CC(=O)N1CCN(c2ccc(OC[C@H]3CO[C@](Cn4ccnc4)(c4ccc(Cl)cc4Cl)O3)cc2)CC1`
Reply: active

Query: Which result was noted for this compound in the test: `CCCCCCCCOC(=O)c1cc(O)c(O)c(O)c1`
Reply: inactive

Query: Which result was noted for this compound in the test: `CCCCCCCCCC(=O)O`
Reply: inactive

All figures here come from PubChem BioAssay (EPA / NIEHS).
